Form field: MC4R selectivity vs MC1R (one value per entry).
target: human MC4R receptor (human, UniProt P32245 1-332); assay: cell-based or functional assay
Sequence (P32245 whole entry): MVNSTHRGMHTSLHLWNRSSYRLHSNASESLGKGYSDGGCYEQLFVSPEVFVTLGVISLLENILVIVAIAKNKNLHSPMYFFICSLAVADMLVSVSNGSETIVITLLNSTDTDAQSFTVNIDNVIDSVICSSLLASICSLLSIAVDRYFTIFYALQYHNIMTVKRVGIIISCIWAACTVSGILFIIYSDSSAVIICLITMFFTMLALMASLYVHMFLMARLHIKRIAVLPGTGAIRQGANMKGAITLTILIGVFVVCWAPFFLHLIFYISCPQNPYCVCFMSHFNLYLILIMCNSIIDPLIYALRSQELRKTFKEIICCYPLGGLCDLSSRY
Starred links: 1 amine or outer side, 2 acyl side, 3 side chain; linkers in the order of their positions; H or OH if unused. Positions of bridges follow the written chain, without caps; N, C: chain ends. Non-standard residues stand in square brackets, D forms with d. Primed or numbered codes have the meaning given here. dTyr(4-OMe)″ = O-methyl-D-tyrosine, COc1ccc(C[C@@H](N[*:1])C(=O)[*:2])cc1; dTyr(O-Me) = O-methyl-D-tyrosine, COc1ccc(C[C@@H](N[*:1])C(=O)[*:2])cc1; dPhe(4-tBu) = CC(C)(C)c1ccc(C[C@@H](N)C(=O)O)cc1; dDip = N[C@@H](C(=O)O)C(c1ccccc1)c1ccccc1; Phe(4-Br) = N[C@@H](Cc1ccc(Br)cc1)C(=O)O; dPhe(4-Br) = N[C@H](Cc1ccc(Br)cc1)C(=O)O; dNMeF = CN[C@H](Cc1ccccc1)C(=O)O; Tic = O=C(O)[C@@H]1Cc2ccccc2CN1; Nle = CCCC[C@H](N)C(=O)O
measure: MC4R selectivity vs MC1R

Ac-RC[dA]R[dPhe(4-Br)]RFC-NH2 (disulfide 2-8; SMILES CC(=O)N[C@@H](CCCNC(=N)N)C(=O)N[C@H]1CSSC[C@@H](C(N)=O)NC(=O)[C@H](Cc2ccccc2)NC(=O)[C@H](CCCNC(=N)N)NC(=O)[C@@H](Cc2ccc(Br)cc2)NC(=O)[C@H](CCCNC(=N)N)NC(=O)[C@@H](C)NC1=O) [CTX-1258] : 0.53
Ac-R[Nle]CR[dTyr(4-OMe)″]RWC-NH2 (disulfide 3-8; SMILES CCCC[C@H](NC(=O)[C@H](CCCNC(=N)N)NC(C)=O)C(=O)N[C@H]1CSSC[C@@H](C(N)=O)NC(=O)[C@H](Cc2c[nH]c3ccccc23)NC(=O)[C@H](CCCNC(=N)N)NC(=O)[C@@H](Cc2ccc(OC)cc2)NC(=O)[C@H](CCCNC(=N)N)NC1=O) [CTX-1614] : 0.08
Ac-RC[dA]R[dTyr(O-Me)]R[dW]C-NH2 (disulfide 2-8; SMILES COc1ccc(C[C@H]2NC(=O)[C@H](CCCNC(=N)N)NC(=O)[C@@H](C)NC(=O)[C@@H](NC(=O)[C@H](CCCNC(=N)N)NC(C)=O)CSSC[C@@H](C(N)=O)NC(=O)[C@@H](Cc3c[nH]c4ccccc34)NC(=O)[C@H](CCCNC(=N)N)NC2=O)cc1) [CTX-1238] : 0.44
Ac-RC[dA]R[dPhe(4-Br)]R[dW]CK-NH2 (disulfide 2-8; SMILES CC(=O)N[C@@H](CCCNC(=N)N)C(=O)N[C@H]1CSSC[C@@H](C(=O)N[C@@H](CCCCN)C(N)=O)NC(=O)[C@@H](Cc2c[nH]c3ccccc23)NC(=O)[C@H](CCCNC(=N)N)NC(=O)[C@@H](Cc2ccc(Br)cc2)NC(=O)[C@H](CCCNC(=N)N)NC(=O)[C@@H](C)NC1=O) [CTX-1218] : 1
Ac-RC[dA]R[dF][dR]WC-NH2 (disulfide 2-8; SMILES CC(=O)N[C@@H](CCCNC(=N)N)C(=O)N[C@H]1CSSC[C@@H](C(N)=O)NC(=O)[C@H](Cc2c[nH]c3ccccc23)NC(=O)[C@@H](CCCNC(=N)N)NC(=O)[C@@H](Cc2ccccc2)NC(=O)[C@H](CCCNC(=N)N)NC(=O)[C@@H](C)NC1=O) [CTX-1282] : 0.14
Ac-RC[dA]R[dDip]R[dW]C-NH2 (disulfide 2-8) [CTX-1280] : 0.1
Ac-RC[dA]R[dPhe(4-tBu)]R[dW]C-NH2 (disulfide 2-8; SMILES CC(=O)N[C@@H](CCCNC(=N)N)C(=O)N[C@H]1CSSC[C@@H](C(N)=O)NC(=O)[C@@H](Cc2c[nH]c3ccccc23)NC(=O)[C@H](CCCNC(=N)N)NC(=O)[C@@H](Cc2ccc(C(C)(C)C)cc2)NC(=O)[C@H](CCCNC(=N)N)NC(=O)[C@@H](C)NC1=O) [CTX-1242] : 0.64
Ac-RC[dA]R[dPhe(4-Br)]R[dW]CRF-NH2 (disulfide 2-8; SMILES CC(=O)N[C@@H](CCCNC(=N)N)C(=O)N[C@H]1CSSC[C@@H](C(=O)N[C@@H](CCCNC(=N)N)C(=O)N[C@@H](Cc2ccccc2)C(N)=O)NC(=O)[C@@H](Cc2c[nH]c3ccccc23)NC(=O)[C@H](CCCNC(=N)N)NC(=O)[C@@H](Cc2ccc(Br)cc2)NC(=O)[C@H](CCCNC(=N)N)NC(=O)[C@@H](C)NC1=O) [CTX-1220] : 1.53
Ac-RC[dA]R[dPhe(4-Br)]R[Tic]C-NH2 (disulfide 2-8) [CTX-1259] : 0.01
Ac-RC[dA][dR][dPhe(4-Br)]R[dW]C-NH2 (disulfide 2-8) [CTX-1250] : 1.06
Ac-RC[dA]R[dPhe(4-Br)]RWC-NH2 (disulfide 2-8) [CTX-2205] : 0.2
Ac-RC[dA]R[dNMeF]R[dW]C-NH2 (disulfide 2-8; SMILES CC(=O)N[C@@H](CCCNC(=N)N)C(=O)N[C@H]1CSSC[C@@H](C(N)=O)NC(=O)[C@@H](Cc2c[nH]c3ccccc23)NC(=O)[C@H](CCCNC(=N)N)NC(=O)[C@@H](Cc2ccccc2)N(C)C(=O)[C@H](CCCNC(=N)N)NC(=O)[C@@H](C)NC1=O) [CTX-1272] : 0.21
Ac-RC[dA]R[Phe(4-Br)]RWC-NH2 (disulfide 2-8) [CTX-1212] : 0.07
